Taken from the supplement of paper PMC6089552.

System: A673/TR/shEF
Assay: cell viability (LOESS-normalised, relative to median of negative controls) (log2 ratio); higher = more viable cells (less compound effect), active = hit call of the paper (over 3 MAD below the median)
Conditions: 0.25 µM; library screen: screen1; EWS-FLI1 expression: high (no doxycycline); treatment time: 72 h
The whole screen tested about 3,200 compounds, of which about 300 (9.4%) showed activity. For the sample, actives were picked, then their nearest neighbours and some compounds at random.
Some molecules, each annotated with its measured cell viability (log2).

MOLECULE	cell viability (log2)
C[C@]12CC[C@@H](O)C[C@H]1CC[C@@H]1[C@@H]2C(=O)C[C@@]2(C)[C@H]1CC[C@]2(O)C(=O)CO	0.162
C=C1CCC(C2CC(=O)OC2=O)C(=O)CCC2C1CC2(C)C (stereo unspecified)	0.1
CCc1nc(N)nc(N)c1-c1ccc(Cl)cc1	0.0408
COc1cc(C(=O)NC2CCCCC2)c([N+](=O)[O-])cc1OC	0.122
CCN(CC)CCNC(=O)c1cc(S(C)(=O)=O)ccc1OC	0.0293
O[C@H]1[C@H]2c3cc4c(cc3CN3CCC(=C[C@@H]1O)[C@H]23)OCO4	0.0121
CCOC(=O)c1ccc(N)cc1	0.113
O=C(O)CCCCCCCCCCCCC1C=CCC1 (stereo unspecified)	0.109
CCN(CC)CCNC(=O)c1ccc(N)cc1	0.0893
COc1cc(CN2CCN(Cc3ccco3)CC2)cc(OC)c1	-0.0146
CC[C@H](C)C(=O)O[C@H]1CCC=C2C=C[C@H](C)[C@H](CC[C@@H]3C[C@@H](O)CC(=O)O3)[C@H]21	0.147
C[n+]1cc2c3c(ccc2c2ccc4cc5c(cc4c21)OCO5)OCO3	0.0872
Clc1ccc(COC(Cn2ccnc2)c2ccc(Cl)cc2Cl)c(Cl)c1 (stereo unspecified)	0.11
N=C1C=CC(=C(c2ccc(N)cc2)c2ccc(N)cc2)C=C1	-0.412
COc1cc(CN2CCN(Cc3cccc(F)c3)CC2)cc2c1OCO2	0.0873
Cc1ccc2nc(NC3=NC(CC(=O)O)C(=O)N3)nc(C)c2c1 (stereo unspecified)	0.016
CC(C)N1C(=O)/C(=C/c2ccc(N(C)C)cc2)SC1=S	0.23
COC(=O)c1c(C)cc(OC(=O)c2c(C)cc(O)c(CO)c2O)c(C)c1O	0.129
Clc1ccc(COC(Cn2ccnc2)c2ccc(Cl)cc2Cl)cc1 (stereo unspecified)	0.00613
Nn1c(SCC(=O)c2ccc(Cl)cc2)nc2ccccc2c1=O	0.102
Cc1nc(-c2ccc(NC(=O)c3ccccc3)cc2)cs1	0.118
CCOc1cc(/C=C2\SC(=S)N(CCS(=O)(=O)O)C2=O)ccc1O	-0.00487
CN(C)CCC=C1c2ccccc2CCc2ccccc21	0.0816
O=C1Nc2ccc(I)cc2/C1=C/c1cc(Br)c(O)c(Br)c1	0.134
N/C(=N\S(=O)(=O)Cc1ccccc1)Nc1nc2ccccc2o1	0.0883
O=C(Nc1ccccc1Cl)C1c2ccccc2Oc2ccccc21	0.0923
Nc1ccc(S(=O)(=O)Nc2ccnn2-c2ccccc2)cc1	0.0545
CCOC(=O)C1(O)Oc2cc(OC)cc(OC)c2C(=O)C1c1ccccc1 (stereo unspecified)	0.122
COc1cccc(C=CC(=O)O)c1C(C)C	0.0613
O=C1/C(=C\c2ccccc2F)SC(=S)N1CN1CCOCC1	0.128
COc1ccc(CN2CCN(Cc3ccc(C)cc3)CC2)c(OC)c1OC	0.0669
Nc1ccc(S(=O)(=O)Nc2ncccn2)cc1	0.0966
C[C@@H]1C[C@H]2[C@@H]3C[C@H](F)C4=CC(=O)C=C[C@]4(C)[C@@]3(F)[C@@H](O)C[C@]2(C)[C@H]1C(=O)COC(=O)C(C)(C)C	0.00935
O=C(O)c1cn(-c2ccccc2)nc1-c1ccc(F)cc1	0.0839
COCc1cc(C)nc(SCC(=O)NC(C)(C)C)c1C#N	0.122
CC(=O)Nc1cccc(O)c1	0.142
